- Test system: PPARg:RXRa DBDmut IVT, anti-RXR (DBD mutation: RXRa K156A/R161A, NR concentration 270 nM, RXRa partner concentration 90 nM)
- assayExplanation: PBM binding z-score (relative to random genomic background probes); higher = stronger binding; sequences stand for … in GC…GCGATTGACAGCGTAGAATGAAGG
Categories are defined by ranges of PBM binding z-score, namely I: < 0.4; II: ≥ 0.4 and < 2; III: ≥ 2

- residueCodes: "ACTAGCAGGCCAAGTTTGGGTTACTCAAACAAAG"
  assignedLabel: "II"
- residueCodes: "ACTCGGAGGACAAAGGTCAGTGCTACGCCAGTGA"
  assignedLabel: "II"
- residueCodes: "CGTCAAAGTTTAAGGTAACGTAACAGAAAGCAGC"
  assignedLabel: "I"
- residueCodes: "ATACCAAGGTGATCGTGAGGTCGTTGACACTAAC"
  assignedLabel: "I"
- residueCodes: "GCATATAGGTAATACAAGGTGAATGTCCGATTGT"
  assignedLabel: "III"
- residueCodes: "TCTTATAGATCAAGCAGGTTAAGAAAGCCTGAGT"
  assignedLabel: "III"
- residueCodes: "GATACAGGGTCAGCTAGAGGCCAGACTATGGAAA"
  assignedLabel: "II"
- residueCodes: "CAGCCTAGGACAGGGCCAGTATAGGAGGAACGTT"
  assignedLabel: "I"
- residueCodes: "ACTATTAGTTGACTTAGGGCAACCGATACGACGC"
  assignedLabel: "I"
- residueCodes: "GCGACTGGGGCATCATCAGGTTACCATAACTTAA"
  assignedLabel: "III"
- residueCodes: "TCTCCGAGGACACGAAAGGTCAGAGCTCGACATC"
  assignedLabel: "II"
- residueCodes: "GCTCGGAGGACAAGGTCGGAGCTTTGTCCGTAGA"
  assignedLabel: "I"
- residueCodes: "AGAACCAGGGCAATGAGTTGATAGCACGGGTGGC"
  assignedLabel: "III"
- residueCodes: "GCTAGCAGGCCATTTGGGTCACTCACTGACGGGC"
  assignedLabel: "III"
- residueCodes: "CCTTACGGGTCAAGGTTATAGAACGGGTGGTACG"
  assignedLabel: "II"
- residueCodes: "CAGCCTAGGTCAGGGCCAGTATCGGAGGAACGTT"
  assignedLabel: "II"
- residueCodes: "TAGCCTAGGTCATTCGGGCCAGTATAGTGTCGGC"
  assignedLabel: "II"

The measurements presented in this section are drawn from the supplement of paper PMC6555819.
